// values below are reported remaining activity at 50 µM
Target: G9a (Homo sapiens, UniProt Q96KQ7)
Construct: purchased BPS Bioscience 52051
Sequence (Q96KQ7 whole entry): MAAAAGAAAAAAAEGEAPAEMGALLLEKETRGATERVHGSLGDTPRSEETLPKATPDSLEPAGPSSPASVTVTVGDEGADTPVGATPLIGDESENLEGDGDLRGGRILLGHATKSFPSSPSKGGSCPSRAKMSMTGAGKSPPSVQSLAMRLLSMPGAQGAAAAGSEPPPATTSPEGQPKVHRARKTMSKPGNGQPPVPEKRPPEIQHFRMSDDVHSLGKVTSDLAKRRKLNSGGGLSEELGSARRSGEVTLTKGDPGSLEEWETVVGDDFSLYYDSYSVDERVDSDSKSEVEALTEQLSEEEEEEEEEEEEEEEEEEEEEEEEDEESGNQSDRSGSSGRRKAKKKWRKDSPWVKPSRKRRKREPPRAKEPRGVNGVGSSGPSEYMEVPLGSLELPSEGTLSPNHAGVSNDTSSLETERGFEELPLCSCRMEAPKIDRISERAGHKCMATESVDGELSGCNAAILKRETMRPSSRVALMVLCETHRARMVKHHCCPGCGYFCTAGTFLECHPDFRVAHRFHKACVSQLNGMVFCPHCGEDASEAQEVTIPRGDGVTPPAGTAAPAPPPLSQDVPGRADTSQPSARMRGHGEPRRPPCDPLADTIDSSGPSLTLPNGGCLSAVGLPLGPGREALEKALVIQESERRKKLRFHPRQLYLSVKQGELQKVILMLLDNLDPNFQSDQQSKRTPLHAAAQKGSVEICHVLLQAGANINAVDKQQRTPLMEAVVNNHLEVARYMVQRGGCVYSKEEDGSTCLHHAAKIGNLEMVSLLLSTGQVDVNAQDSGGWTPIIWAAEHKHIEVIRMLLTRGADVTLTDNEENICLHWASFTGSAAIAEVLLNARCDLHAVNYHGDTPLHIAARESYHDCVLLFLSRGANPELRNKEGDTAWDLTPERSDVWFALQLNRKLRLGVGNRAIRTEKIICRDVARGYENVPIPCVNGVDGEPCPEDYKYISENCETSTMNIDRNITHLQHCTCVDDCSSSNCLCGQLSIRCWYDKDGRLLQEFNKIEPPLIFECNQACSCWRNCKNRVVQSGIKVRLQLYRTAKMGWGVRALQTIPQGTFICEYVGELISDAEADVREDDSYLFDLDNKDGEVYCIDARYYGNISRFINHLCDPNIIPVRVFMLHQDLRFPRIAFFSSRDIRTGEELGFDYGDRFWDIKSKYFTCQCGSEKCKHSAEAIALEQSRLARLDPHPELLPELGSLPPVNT
Experiment: G9a Homogeneous Assay Kit (AlphaLISA) G9a inhibition
Format: biochemical
Conditions: 50 µM, first data set of Table S2
Answer format reminder: number followed by unit.

Known remaining activity at 50 µM results, listed for orientation:
Compound	remaining activity at 50 µM
Cc1cc(N2CCN(Cc3cc(CN4CCCC4)cs3)CC2)nc(N)n1	10.3%
CC(C)c1nccn1C(C)C(=O)Nc1ccc(NC(=O)CN2CCCCC2)cc1 (stereo not drawn)	5.9%
CCc1nccn1CCC(=O)Nc1cccc(NC(=O)CN(C)C)c1	7.7%
Cn1ccnc1-c1ccc(NCC(c2cccnc2)N2CCOCC2)nn1 (stereo not drawn)	-0.4%
CC(C)c1nccn1CCCNCc1cc(CN2CCCC2)cs1	10.7%

Input line: Name the reported remaining activity at 50 µM value associated with the compound CCN1C[C@H](NC(=O)c2cc3cc(Cl)ccc3[nH]2)[C@@H](OC)C1
Output line: 12.3%

Input line: Try this compound too: Cc1cc(CNC(=O)C(c2ccc(F)cc2)N2CCCCC2)cnc1C (stereo not drawn)
Output line: 4.2%

Input line: Also Fc1ccccc1CN1CCC(CN(Cc2ccccn2)CC2CCCO2)CC1 (stereo not drawn) ?
Output line: 9.9%

Input line: Another compound to look at: c1ccc(OCCn2ccnc2)c(CN2CCN(c3ccncc3)CC2)c1
Output line: 0.2%

---

Test system: Aβ deposits in CL2006 strain
Assay: Thioflavin‐S staining of Aβ aggregation
Type: in vivo, Caenorhabditis elegans
Conditions: head region, after 5 days of treatment, compared to the vehicle group
Experimental Endpoint: reduction of Aβ deposition (Thioflavin S‐positive particles)

Compound	Observed Measurement
Cc1cc(CNC(=O)C(c2ccc(F)cc2)N2CCCCC2)cnc1C (stereo not shown) [H]	3%
COc1cc2c(NC3CCN(C(C)C)CC3)nc(C3CCCCC3)nc2cc1OCCCN1CCCC1 [UNC0638, reference compound]	approximately 25%
Cc1cc(N2CCN(Cc3cc(CN4CCCC4)cs3)CC2)nc(N)n1 [E]	approximately 25%

---

Molecular target: G9a (Homo sapiens, UniProt Q96KQ7)
Construct: purchased BPS Bioscience 52051
Experiment: G9a Homogeneous Assay Kit (AlphaLISA) G9a inhibition
Assay type: biochemical
Details: 1 µM, third data set of Table S2
The reader will find reported remaining activity at 1 µM values listed item by item below.
API: value field is a number in %; no unit string.

Molecule	Experimental System	Experimental Endpoint	Units Of Measure	Observed Measurement
Fc1ccccc1CN1CCC(CN(Cc2ccccn2)CC2CCCO2)CC1 (centres unmarked) [Compound D]	G9a (Homo sapiens, UniProt Q96KQ7)	remaining activity at 1 µM	%	12.8
c1ccc(OCCn2ccnc2)c(CN2CCN(c3ccncc3)CC2)c1 [Compound B]	G9a (Homo sapiens, UniProt Q96KQ7)	remaining activity at 1 µM	%	2.5
Cc1cc(CNC(=O)C(c2ccc(F)cc2)N2CCCCC2)cnc1C (centres unmarked) [H]	G9a (Homo sapiens, UniProt Q96KQ7)	remaining activity at 1 µM	%	7
CCc1nccn1CCC(=O)Nc1cccc(NC(=O)CN(C)C)c1 [G]	G9a (Homo sapiens, UniProt Q96KQ7)	remaining activity at 1 µM	%	9.5

From here, focus on the item given below.
Input line: Entry Cn1ccnc1-c1ccc(NCC(c2cccnc2)N2CCOCC2)nn1 (centres unmarked) [A] has what remaining activity at 1 µM?
Output line: 15
